# Protocol notes: chemical genetic growth profiling, strain panel (AID 1159580);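 note: tested at 20 µM; growth read once vehicle control cultures reached saturation at 30 °C; lower values mean less growth of the strain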
# Condition details: S. cerevisiae deletion strains, growth OD, locus YBR009C, strain hhf1
Screen size: about 5,500 compounds; about 2,000 (36%) were called active. About 18% were inconclusive and are not listed. Cut-off read from the data, not from the text of the source: active = normalized growth mostly below about 0.91 (no sharp cut-off); inconclusive = no clear call, values can overlap the other calls; inactive = mostly above about 0.92. This is one part of the list.
Labels: active, inactive

- Compound: "COc1ccc(CCN2CCC(Nc3nc4ccccc4n3Cc3ccc(F)cc3)CC2)cc1"
  Class: "inactive"
- Compound: "CCN(CC)C(=O)c1cccc(C)c1"
  Class: "inactive"
- Compound: "CC(C)C(C)/C=C/C(C)C1CCC2C3=CC=C4CC(O)CCC4(C)C3CCC21C (stereo unspecified)"
  Class: "active"
- Compound: "O=C1OC2(c3ccc(O)cc3Oc3cc(O)ccc32)c2ccccc21"
  Class: "inactive"
- Compound: "CC(C)C(C)/C=C/C(C)[C@H]1CCC2C3=CCC4CC(=O)CC[C@]4(C)C3CC[C@@]21C (stereo partly specified)"
  Class: "inactive"
- Compound: "CC(C)NCC(O)c1cc(O)cc(O)c1 (stereo unspecified)"
  Class: "inactive"
- Compound: "CCOC(=O)c1ccc(O)cc1"
  Class: "inactive"
- Compound: "CC(C)NC[C@H](O)COc1cccc2ccccc12"
  Class: "inactive"
- Compound: "CC[C@H](C)C(=O)O[C@H]1CCC=C2C=C[C@H](C)C(CCC3C[C@@H](O)CC(=O)O3)[C@H]21 (stereo partly specified)"
  Class: "inactive"
- Compound: "CC(=O)OC1CCC2(C)C(=CC=C3C2CCC2(C)C3CCC2C(C)/C=C/C(C)C(C)C)C1(C)C (stereo unspecified)"
  Class: "inactive"
- Compound: "CC(C)COCC(CN(Cc1ccccc1)c1ccccc1)N1CCCC1 (stereo unspecified)"
  Class: "inactive"

All figures here come from PubChem BioAssay AID1159580.
